observationType: glass transition temperature (°C)
// units = °C; emit number, no label

The compound *C(=O)c1ccc2c(c1OCc1ccccc1[N+](=O)[O-])C(=O)N(c1ccc(Oc3ccc(N4C(=O)c5ccc(*)c(OCc6ccccc6[N+](=O)[O-])c5C4=O)cc3)cc1)C2=O (repeat unit) showed glass transition temperature equal to 198.00

The measured glass transition temperature associated with *Oc1ccc(C(C)(C)c2ccc(OC(=O)c3ccc(C(*)=O)cc3)c(C(C)C)c2)cc1C(C)C (repeat unit) reads 140.00

The reported glass transition temperature of the compound *CCOC(=O)CCCCCC(=O)O* (repeat unit) was -46.00

// field: glass transition temperature; key: *c1ccc2c(c1)C(=O)N(c1cccc(C(F)(F)C(F)(F)C(F)(F)C(F)(F)C(F)(F)c3cccc(N4C(=O)c5ccc(C(F)(F)C(F)(F)C(F)(F)C(*)(F)F)cc5C4=O)c3)c1)C2=O (repeat unit) ; value = 144.00

---

Mark 0.0 for glass transition temperature values under 10 °C, and 1.0 for everything at or above.

INPUT: Check if glass transition temperature >= 10 °C (inclusive). Item: *=NP(=NP(=NC(=*)Oc1ccc(C(=O)OC)cc1)(Oc1ccc(C(=O)OC)cc1)Oc1ccc(C(=O)OC)cc1)(Oc1ccc(C(=O)OC)cc1)Oc1ccc(C(=O)OC)cc1 (repeat unit)
OUTPUT: 1.0

INPUT: Check this molecule for glass transition temperature at or above 10 °C: *CCN(*)C(=O)CCCC (repeat unit)
OUTPUT: 1.0

INPUT: Could you please find out whether *OC(COC(=O)Nc1ccc(Cc2ccc(NC(*)=O)cc2)cc1)c1ccco1 (repeat unit) has glass transition temperature that meets 10 °C or exceeds it?
OUTPUT: 1.0

INPUT: Can *CC(OO*)c1ccc(C)cc1 (repeat unit) be said to have glass transition temperature at or above 10 °C?
OUTPUT: 0.0

INPUT: Reported glass transition temperature at or above 10 °C? *CCCCCCCCC(=O)N* (repeat unit)
OUTPUT: 1.0

INPUT: Quick check: does *CC(*)S(=O)(=O)c1ccccc1 (repeat unit) have glass transition temperature greater than or equal to 10 °C?
OUTPUT: 1.0

INPUT: # bool: glass transition temperature of *c1ccc(Oc2ccc(P(=O)(c3ccccc3)c3ccc(Oc4ccc(-c5nc(-c6ccccc6)[nH]c5*)cc4)cc3)cc2)cc1 (repeat unit) >= 10 °C
OUTPUT: 1.0

INPUT: Tell me whether glass transition temperature is at least 10 °C here: *CC(*)C(=O)OCCOCC(F)(F)F (repeat unit)
OUTPUT: 0.0

INPUT: Test whether the molecule *C[Si](*)(CCCCCC)CCCCCC (repeat unit) records glass transition temperature of 10 °C or higher.
OUTPUT: 0.0

INPUT: Could you tell me if the measured glass transition temperature of *CC1(C)CC(*)(C)C(=O)OC1=O (repeat unit) reaches 10 °C or more?
OUTPUT: 1.0

---

observationType: glass transition temperature (°C)
// return numeric value only (unit: °C, not printed)

For this molecule ( *CC(*)c1ccc(-c2ccc3c(c2)C(CCCCCC)(CCCCCC)c2ccccc2-3)cc1 (repeat unit) ), measured glass transition temperature is 81.2

The recorded glass transition temperature for *OC(C)CC(*)=O (repeat unit) is 3.40

So for *CCCCCCNC(=O)CCCCCCCCCCC(=O)N* (repeat unit) , the logged glass transition temperature turned out to be 45.92

Briefly, glass transition temperature measured for *Oc1ccc(-c2ccc(OC(=O)c3ccc(C(*)=O)cc3)cc2)cc1-c1ccccc1 (repeat unit) : 132.00

For this molecule ( *C(=O)Nc1cccc(NC(=O)c2ccc3c(c2)C(=O)N(c2ccc(S(=O)(=O)c4ccc(N5C(=O)c6ccc(*)cc6C5=O)cc4)cc2)C3=O)c1 (repeat unit) ), measured glass transition temperature is 311.00

The measured glass transition temperature associated with *c1ccc(OCCCCCCCCCCOc2ccc(N3C(=O)c4ccc(-c5ccc6c(c5)C(=O)N(*)C6=O)cc4C3=O)cc2)cc1 (repeat unit) reads 153.00

# glass transition temperature (molecule: *C(=O)c1ccc2c(c1)C(=O)N(c1ccc(S(=O)(=O)c3ccc(NC(=O)c4cccc(C(=O)Nc5ccc(S(=O)(=O)c6ccc(N7C(=O)c8ccc(*)cc8C7=O)cc6)cc5)c4)cc3)cc1)C2=O (repeat unit) ) is 226.00

Briefly, glass transition temperature measured for *CC(*)(CC(=O)OCc1ccccc1)C(=O)OCc1ccccc1 (repeat unit) : 55.00

# glass transition temperature (molecule: *Nc1ccc(-c2ccc(NC(=O)c3cccc(C(*)=O)c3)c(OC)c2)cc1OC (repeat unit) ) is 218.20

Lab note: *CCc1ccc(CCNC(=O)CCCCCCCCCC(=O)N*)cc1 (repeat unit) gave glass transition temperature of 96.00
